- assayText: Pharmacokinetics in female Lewis rats, noncompartmental analysis
- assaySetup: rat, in vivo, iv, 1 mg/kg
assayMetric: Vd (L/kg)
Just the number in L/kg, nothing appended.

# Vd (compound: Cc1ccccc1NC(=O)Nc1ccc(CC(=O)N(C)[C@@H](CC(C)C)C(=O)NCC[C@H](NC(=O)[C@@H]2CCCN2S(=O)(=O)c2cc(Cl)cc(Cl)c2)C(=O)O)cc1 [Compound R] ) is 0.168

---

- assayText: Pharmacokinetics in female Lewis rats, noncompartmental analysis
- assaySetup: rat, in vivo, sc, 10 mg/kg
assayMetric: Cmax (ng/mL)
Just the number in ng/mL, nothing appended.

# Cmax (molecule: Cc1ccccc1NC(=O)Nc1ccc(CC(=O)N(C)[C@@H](CC(C)C)C(=O)NCC[C@H](NC(=O)[C@@H]2CCCN2S(=O)(=O)c2cc(Cl)cc(Cl)c2)C(=O)O)cc1 ) is 780

---

- systemName: α2β1 (Homo sapiens, UniProt P05556+P17301)
- Sequence (P17301 30-1181): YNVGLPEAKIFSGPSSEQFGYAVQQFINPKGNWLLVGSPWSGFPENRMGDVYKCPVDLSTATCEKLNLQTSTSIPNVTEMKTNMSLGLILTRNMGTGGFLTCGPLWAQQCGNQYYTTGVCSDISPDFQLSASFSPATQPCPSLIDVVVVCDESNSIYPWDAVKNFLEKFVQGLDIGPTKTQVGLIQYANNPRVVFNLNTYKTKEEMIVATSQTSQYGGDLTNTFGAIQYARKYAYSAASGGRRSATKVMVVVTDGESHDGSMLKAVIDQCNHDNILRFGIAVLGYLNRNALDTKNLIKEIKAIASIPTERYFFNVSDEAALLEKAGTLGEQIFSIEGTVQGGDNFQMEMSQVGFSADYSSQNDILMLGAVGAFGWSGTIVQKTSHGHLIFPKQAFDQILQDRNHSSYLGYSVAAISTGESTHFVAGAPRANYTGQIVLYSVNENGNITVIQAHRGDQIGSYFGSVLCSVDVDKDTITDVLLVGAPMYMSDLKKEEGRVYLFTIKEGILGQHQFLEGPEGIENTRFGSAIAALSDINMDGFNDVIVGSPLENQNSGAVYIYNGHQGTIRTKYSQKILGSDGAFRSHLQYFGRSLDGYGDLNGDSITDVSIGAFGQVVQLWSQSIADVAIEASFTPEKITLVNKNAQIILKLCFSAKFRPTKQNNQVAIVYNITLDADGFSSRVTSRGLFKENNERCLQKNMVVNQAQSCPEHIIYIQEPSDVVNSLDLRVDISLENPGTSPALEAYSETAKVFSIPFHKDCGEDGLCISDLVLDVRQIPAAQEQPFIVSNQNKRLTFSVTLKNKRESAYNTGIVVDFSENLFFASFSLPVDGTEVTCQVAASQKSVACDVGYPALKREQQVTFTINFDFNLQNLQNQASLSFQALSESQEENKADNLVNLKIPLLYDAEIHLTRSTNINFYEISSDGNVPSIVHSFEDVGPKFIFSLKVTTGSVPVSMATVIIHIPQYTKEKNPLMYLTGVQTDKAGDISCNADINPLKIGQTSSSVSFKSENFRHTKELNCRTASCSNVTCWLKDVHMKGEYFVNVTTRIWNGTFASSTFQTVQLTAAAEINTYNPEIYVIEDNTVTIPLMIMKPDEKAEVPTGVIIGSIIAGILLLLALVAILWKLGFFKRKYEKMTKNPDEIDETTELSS
- Sequence (P05556 21-798): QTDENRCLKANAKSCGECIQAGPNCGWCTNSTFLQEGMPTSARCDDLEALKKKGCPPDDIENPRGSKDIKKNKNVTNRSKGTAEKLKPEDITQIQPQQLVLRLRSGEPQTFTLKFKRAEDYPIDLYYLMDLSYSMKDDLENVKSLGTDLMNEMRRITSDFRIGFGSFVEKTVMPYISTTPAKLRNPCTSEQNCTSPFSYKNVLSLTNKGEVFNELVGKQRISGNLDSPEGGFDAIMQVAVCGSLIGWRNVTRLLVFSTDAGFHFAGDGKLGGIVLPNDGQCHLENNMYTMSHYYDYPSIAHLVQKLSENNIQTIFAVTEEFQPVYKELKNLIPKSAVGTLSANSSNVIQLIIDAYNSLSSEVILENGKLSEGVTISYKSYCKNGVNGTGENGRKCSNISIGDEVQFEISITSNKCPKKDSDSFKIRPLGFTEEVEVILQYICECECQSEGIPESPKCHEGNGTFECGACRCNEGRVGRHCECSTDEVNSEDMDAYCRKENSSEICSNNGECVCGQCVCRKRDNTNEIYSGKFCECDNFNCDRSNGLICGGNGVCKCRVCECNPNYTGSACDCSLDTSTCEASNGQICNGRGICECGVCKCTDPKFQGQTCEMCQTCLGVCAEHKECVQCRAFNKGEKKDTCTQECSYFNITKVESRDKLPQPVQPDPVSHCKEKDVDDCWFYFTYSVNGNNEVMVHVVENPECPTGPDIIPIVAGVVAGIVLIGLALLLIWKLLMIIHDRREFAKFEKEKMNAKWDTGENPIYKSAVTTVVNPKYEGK
- assayText: α2β1/collagen I cell adhesion assay (K562 transfected with human α2 integrin chain)
- assaySetup: adhesion format, 1 mM MnCl2
assayMetric: IC50 (µM)
Just the number in µM, nothing appended.

# IC50 (molecule: Cc1ccccc1NC(=O)Nc1ccc(CC(=O)N(C)[C@@H](CC(C)C)C(=O)NCC[C@H](NC(=O)C2CCCN2S(=O)(=O)c2ccccc2)C(=O)O)cc1 (stereo partly shown) [Compound B] ) is 5

---

IC50 overview
- systemName: α4β1 (Homo sapiens, UniProt P05556+P13612)
- Sequence (P13612 34-1032, one chain of several): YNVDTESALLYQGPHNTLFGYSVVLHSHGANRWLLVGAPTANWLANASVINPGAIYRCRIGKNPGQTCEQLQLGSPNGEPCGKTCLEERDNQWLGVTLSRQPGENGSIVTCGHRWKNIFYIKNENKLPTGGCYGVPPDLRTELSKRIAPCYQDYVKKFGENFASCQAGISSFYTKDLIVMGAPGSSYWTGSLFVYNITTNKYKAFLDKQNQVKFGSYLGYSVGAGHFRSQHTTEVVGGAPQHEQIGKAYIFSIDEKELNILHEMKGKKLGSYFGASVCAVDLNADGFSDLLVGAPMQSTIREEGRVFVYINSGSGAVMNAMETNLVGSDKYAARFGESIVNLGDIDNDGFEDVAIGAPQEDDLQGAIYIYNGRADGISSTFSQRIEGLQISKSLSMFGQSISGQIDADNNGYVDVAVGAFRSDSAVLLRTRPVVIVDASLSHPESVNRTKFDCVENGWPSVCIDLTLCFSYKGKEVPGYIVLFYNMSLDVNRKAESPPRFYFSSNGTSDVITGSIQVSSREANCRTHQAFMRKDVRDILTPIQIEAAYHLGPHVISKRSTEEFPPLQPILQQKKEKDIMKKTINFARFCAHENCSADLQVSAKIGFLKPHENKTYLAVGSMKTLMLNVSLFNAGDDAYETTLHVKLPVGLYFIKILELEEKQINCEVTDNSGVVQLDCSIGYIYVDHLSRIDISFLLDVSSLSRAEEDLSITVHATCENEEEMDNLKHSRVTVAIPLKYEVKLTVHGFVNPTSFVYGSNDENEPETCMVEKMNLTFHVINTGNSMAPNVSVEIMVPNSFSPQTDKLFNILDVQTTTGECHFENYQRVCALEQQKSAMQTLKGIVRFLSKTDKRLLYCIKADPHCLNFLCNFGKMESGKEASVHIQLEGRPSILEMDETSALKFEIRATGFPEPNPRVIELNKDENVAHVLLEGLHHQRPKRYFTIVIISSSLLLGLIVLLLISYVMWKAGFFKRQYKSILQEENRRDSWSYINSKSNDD
- assayText: Equilibrium binding on Jurkat cells, competition with 35S-B as reporter
- assaySetup: IC50(HP), 100% human plasma
Just the number in nM, nothing appended.

Example molecules with recorded IC50:
molecule | systemName | measurementUnits | IC50
Cc1ccccc1NC(=O)Nc1ccc(CC(=O)N(C)[C@@H](CC(C)C)C(=O)NCC[C@H](NC(=O)[C@@H]2CCCN2S(=O)(=O)c2cc(Cl)cc(Cl)c2)C(=O)O)cc1 | α4β1 (Homo sapiens, UniProt P05556+P13612) | nM | 0.8
Cc1ccccc1NC(=O)Nc1ccc(CC(=O)N(C)C(CC(C)C)C(=O)NCCC(NC(=O)[C@@H]2C[C@H](NC(=O)CCCCCN)CN2S(=O)(=O)c2ccccc2)C(=O)O)cc1 (relative stereo) | α4β1 (Homo sapiens, UniProt P05556+P13612) | nM | 7.9

Next molecule, IC50 to be filled in.
# IC50 (molecule: Cc1ccccc1NC(=O)Nc1ccc(CC(=O)N(C)[C@@H](CC(C)C)C(=O)NCC[C@H](NC(=O)[C@@H]2C[C@H](N)CN2S(=O)(=O)c2ccccc2)C(=O)O)cc1 ) is 8.7

---

- assayText: Pharmacokinetics in female Lewis rats, noncompartmental analysis
- assaySetup: rat, in vivo, iv, 1 mg/kg
assayMetric: Cmax
Write the figure, then the unit, nothing else.

# Cmax (compound: Cc1ccccc1NC(=O)Nc1ccc(CC(=O)N(C)[C@@H](CC(C)C)C(=O)NCC[C@H](NC(=O)[C@@H]2CCCN2S(=O)(=O)c2cc(Cl)cc(Cl)c2)C(=O)O)cc1 ) is 13100 ng/mL

---

koff overview
- systemName: α4β1 (Homo sapiens, UniProt P05556+P13612)
- assayText: Kinetic binding to α4β1 on Jurkat cells, competition with 35S-B as probe for free α4β1
- Parameters: endogenous in cells; host or cells: Jurkat human T-cell line
- assaySetup: Jurkat cells, 35S-B probe; read-out: koff/10^−4
Just the number in s⁻¹, nothing appended.

molecule | quantitativeReadout
Cc1ccccc1NC(=O)Nc1ccc(CC(=O)N(C)[C@@H](CC(C)C)C(=O)NCC[C@H](NC(=O)[C@@H]2C[C@@H](N)CN2S(=O)(=O)c2ccccc2)C(=O)O)cc1 [C] | 0.00012

Considering Cc1ccccc1NC(=O)Nc1ccc(CC(=O)N(C)[C@@H](CC(C)C)C(=O)NCC[C@H](NC(=O)[C@@H]2C[C@H](N)CN2S(=O)(=O)c2ccccc2)C(=O)O)cc1 [F] , its koff with α4β1 (Homo sapiens, UniProt P05556+P13612) was recorded as 0.00024

Considering Cc1ccccc1NC(=O)Nc1ccc(CC(=O)N(C)[C@@H](CC(C)C)C(=O)NCC[C@H](NC(=O)C2CCCN2S(=O)(=O)c2ccccc2)C(=O)O)cc1 (stereo partly shown) [Compound B] , its koff with α4β1 (Homo sapiens, UniProt P05556+P13612) was recorded as 1.9e-05

Considering Cc1ccccc1NC(=O)Nc1ccc(CC(=O)N(C)[C@@H](CC(C)C)C(=O)NCC[C@H](NC(=O)[C@@H]2CCCN2S(=O)(=O)c2cc(Cl)cc(Cl)c2)C(=O)O)cc1 [Compound R] , its koff with α4β1 (Homo sapiens, UniProt P05556+P13612) was recorded as 1.2e-05
